Sourced from ChEMBL document CHEMBL1157562

# Assayed System: P2Y purinoceptor 12 (Homo sapiens, UniProt Q9H244)
# Sequence (Q9H244 whole entry): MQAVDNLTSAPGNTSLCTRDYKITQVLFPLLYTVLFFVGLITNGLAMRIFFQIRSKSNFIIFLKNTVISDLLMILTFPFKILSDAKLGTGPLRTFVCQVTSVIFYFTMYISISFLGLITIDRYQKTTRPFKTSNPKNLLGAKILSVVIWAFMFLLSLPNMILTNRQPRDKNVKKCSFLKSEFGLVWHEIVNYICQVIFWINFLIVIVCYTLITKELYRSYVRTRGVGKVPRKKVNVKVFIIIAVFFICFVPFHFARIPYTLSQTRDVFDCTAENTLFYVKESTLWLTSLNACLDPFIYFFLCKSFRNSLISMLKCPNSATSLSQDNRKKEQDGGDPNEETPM
# Protocol Notes: Displacement of [33P]ADP from human recombinant P2Y12 receptor expressed in CHO cells
So I've got a bunch of compounds here, and I need their pKi values.
// pKi: -log10(molar conc.)

What does the record list as pKi for CCCCOC(=O)N1CCN(C(=O)[C@H](CCC(=O)O)NC(=O)c2cc(OCC3CCNCC3)cc(-c3ccccc3)n2)CC1 ?
8.38

What about CCCCCOC(=O)N1CCN(C(=O)[C@H](CCC(=O)O)NC(=O)c2cc(CCCCO)cc(-c3ccccc3)n2)CC1 ?
8.44

What about CC(C)OC(=O)N1CCN(C(=O)[C@H](CCC(=O)O)NC(=O)c2cccc(-c3ccccc3)n2)CC1 ?
6.55

What about CCNC(=O)N1CCN(C(=O)[C@H](CCC(=O)O)NC(=O)c2cccc(-c3ccccc3)n2)CC1 ?
6.54

What about CCCCCOC(=O)N1CCN(C(=O)[C@H](CCC(=O)O)NC(=O)c2cc(CCCCCO)cc(-c3ccccc3)n2)CC1 ?
8.55

What about CCCCCOC(=O)N1CCN(C(=O)[C@H](CCC(=O)O)NC(=O)c2cc(NC(=O)OCCOC)cc(-c3ccccc3)n2)CC1 ?
8.85

What about CCCCCOC(=O)N1CCN(C(=O)[C@H](CCC(=O)O)NC(=O)c2cc(OCC3CCN(C)CC3)cc(-c3ccccc3)n2)CC1 ?
8.28

What about C#CCCOC(=O)N1CCN(C(=O)[C@H](CCC(=O)O)NC(=O)c2cccc(-c3ccccc3)n2)CC1 ?
7.10

What about CCCCCOC(=O)N1CCN(C(=O)[C@H](CCC(=O)O)NC(=O)c2cc(N3CCC(COCCC)CC3)cc(-c3ccccc3)n2)CC1 ?
7.66

What about CCOC(=O)N1CCN(C(=O)[C@H](CCC(=O)O)NC(=O)c2cc(N(C)CCO)cc(-c3ccccc3)n2)CC1 ?
7.06

What about CCOC(=O)N1CCN(C(=O)[C@H](CCC(=O)O)NC(=O)c2cc(N(C)C)cc(-c3ccccc3)n2)CC1 ?
7.35

What about CCOC(=O)N1CCN(C(=O)[C@H](CCC(=O)O)NC(=O)c2cc(O)cc(-c3ccccc3)n2)CC1 ?
7.21

What about CCCCCOC(=O)N1CCN(C(=O)[C@H](CCC(=O)O)NC(=O)c2cc(OCC3CCN(C(=O)C(F)(F)F)CC3)cc(-c3ccccc3)n2)CC1 ?
8.35

What about CCCCCOC(=O)N1CCN(C(=O)[C@H](CCC(=O)O)NC(=O)c2cc(NCCC)cc(-c3ccccc3)n2)CC1 ?
7.92

What about CCCCOC(=O)N1CCN(C(=O)[C@H](CCC(=O)O)NC(=O)c2cc(OC3CCNC3)cc(-c3ccccc3)n2)CC1 (stereo partly specified) ?
8.43

====

# Protocol Notes: Clearance in Sprague-Dawley rat at 2 mg/kg, iv and 5 mg/kg, po
# Type: ADME, organism-based
# Recorded Conditions: in vivo
Experimental Readout: clearance (mL/min/kg)
Express it in mL/min/kg; write the number only.

What does the record list as clearance for CCOC(=O)N1CCN(C(=O)[C@H](CCC(=O)O)NC(=O)c2cc(N3CCOCC3)cc(-c3ccccc3)n2)CC1 ?
58

What about CCCCCOC(=O)N1CCN(C(=O)[C@H](CCC(=O)O)NC(=O)c2cc(OC(=O)N3CCCC3)cc(-c3ccccc3)n2)CC1 ?
46

What about CCOC(=O)N1CCN(C(=O)[C@H](CCC(=O)O)NC(=O)c2cccc(-c3ccccc3)n2)CC1 ?
98

What about CCCCCOC(=O)N1CCN(C(=O)[C@H](CCC(=O)O)NC(=O)c2cc(CCCNCC(C)C)cc(-c3ccccc3)n2)CC1 ?
112

What about CCCCCOC(=O)N1CCN(C(=O)[C@H](CCC(=O)O)NC(=O)c2cc(OC(=O)N(C)CC3CCOCC3)cc(-c3ccccc3)n2)CC1 ?
109

What about CCCCCOC(=O)N1CCN(C(=O)[C@H](CCC(=O)O)NC(=O)c2cc(N3CCC(N4CCCC4)CC3)cc(-c3ccccc3)n2)CC1 ?
52

What about CCCCCOC(=O)N1CCN(C(=O)[C@H](CCC(=O)O)NC(=O)c2cc(OC3CCN(C(C)=O)CC3)cc(-c3ccccc3)n2)CC1 ?
36

What about CCOC(=O)N1CCN(C(=O)[C@H](CCC(=O)O)NC(=O)c2cc(OCCOC)cc(-c3ccccc3)n2)CC1 ?
94

====

# Protocol Notes: Antiplatelet aggregation activity against adenosine diphosphate-induced human platelet rich plasma assessed as inhibition of platelet aggregation by turbidimetric method
# Assay type: functional
# Recorded Conditions: Homo sapiens, Platelet, Plasma
Please assign No whenever IC50 is at or above 2 µM, and Yes whenever it is below.

A record lists CCCCCOC(=O)N1CCN(C(=O)[C@H](CCC(=O)O)NC(=O)c2cc(NCCO)cc(-c3ccccc3)n2)CC1 . Is its IC50 below 2 µM?
No

What about CCCCCOC(=O)N1CCN(C(=O)[C@H](CCC(=O)O)NC(=O)c2cccc(-c3ccccc3)n2)CC1 ?
No

What about CCOC(=O)N1CCN(C(=O)[C@H](CCC(=O)O)NC(=O)c2cc(-c3ccccc3)cc(-c3ccccc3)n2)CC1 ?
No

What about CCCCCOC(=O)N1CCN(C(=O)[C@H](CCC(=O)O)NC(=O)c2cc(CCCNCC(C)C)cc(-c3ccccc3)n2)CC1 ?
Yes

What about CCCCCCCOC(=O)N1CCN(C(=O)[C@H](CCC(=O)O)NC(=O)c2cccc(-c3ccccc3)n2)CC1 ?
No

What about CCCCCOC(=O)N1CCN(C(=O)[C@H](CCC(=O)O)NC(=O)c2cc(OC3CCN(C(C)=O)CC3)cc(-c3ccccc3)n2)CC1 ?
Yes

What about CCCCNC(=S)N1CCN(C(=O)[C@H](CCC(=O)O)NC(=O)c2cccc(-c3ccccc3)n2)CC1 ?
No

What about CCCCOC(=O)N1CCN(C(=O)[C@H](CCC(=O)O)NC(=O)c2cc(OCC3CCCCN3)cc(-c3ccccc3)n2)CC1 (stereo partly specified) ?
Yes

What about CCCCCCN1CCN(C(=O)[C@H](CCC(=O)O)NC(=O)c2cccc(-c3ccccc3)n2)CC1 ?
No

What about CCCCCOC(=O)N1CCN(C(=O)[C@H](CCC(=O)O)NC(=O)c2cc(OC3CCN(S(=O)(=O)CC)CC3)cc(-c3ccccc3)n2)CC1 ?
No

What about CCCCCCOC(=O)N1CCN(C(=O)[C@H](CCC(=O)O)NC(=O)c2cc(NCCOC)cc(-c3ccccc3)n2)CC1 ?
No

What about CCCCCOC(=O)N1CCN(C(=O)[C@H](CCC(=O)O)NC(=O)c2cc(NC(=O)NCC(=O)N(C)C)cc(-c3ccccc3)n2)CC1 ?
No

What about CCCCCOC(=O)N1CCN(C(=O)[C@H](CCC(=O)O)NC(=O)c2cc(N3CCC(N)CC3)cc(-c3ccccc3)n2)CC1 ?
Yes

What about CCCCCOC(=O)N1CCN(C(=O)[C@H](CCC(=O)O)NC(=O)c2cc(C(=O)NC3CCOCC3)cc(-c3ccccc3)n2)CC1 ?
No

What about CCCCCOC(=O)N1CCN(C(=O)[C@H](CCC(=O)O)NC(=O)c2cc(OCC3CCN(C(C)=O)CC3)cc(-c3ccccc3)n2)CC1 ?
Yes

What about CCCN1CCN(C(=O)[C@H](CCC(=O)O)NC(=O)c2cccc(-c3ccccc3)n2)CC1 ?
No

What about CCCCCNC(=S)N1CCN(C(=O)[C@H](CCC(=O)O)NC(=O)c2cccc(-c3ccccc3)n2)CC1 ?
No

What about CCCCCOC(=O)N1CCN(C(=O)[C@H](CCC(=O)O)NC(=O)c2cc(NCCC)cc(-c3ccccc3)n2)CC1 ?
No

What about CCCCCOC(=O)N1CCN(C(=O)[C@H](CCC(=O)O)NC(=O)c2cc(OC(=O)N3CCC(OCC)CC3)cc(-c3ccccc3)n2)CC1 ?
Yes

What about CCCCCOC(=O)N1CCN(C(=O)[C@H](CCC(=O)O)NC(=O)c2cc(CCCN(C)C)cc(-c3ccccc3)n2)CC1 ?
Yes

What about CCOC(=O)N1CCN(C(=O)CNC(=O)c2cccc(-c3ccccc3)n2)CC1 ?
No

What about CCOC(=O)N1CCN(C(=O)[C@H](CCC(=O)O)NC(=O)c2cc(OC3CCNCC3)cc(-c3ccccc3)n2)CC1 ?
Yes

What about CCCCOC(=O)N1CCN(C(=O)[C@H](CCC(=O)O)NC(=O)c2cc(OCCCC)cc(-c3ccccc3)n2)CC1 ?
No

What about CC(C)C(=O)N1CCN(C(=O)[C@H](CCC(=O)O)NC(=O)c2cccc(-c3ccccc3)n2)CC1 ?
No

What about CCCCCOC(=O)N1CCN(C(=O)[C@H](CCC(=O)O)NC(=O)c2cc(CC3CCCCC3)cc(-c3ccccc3)n2)CC1 ?
No

What about CCCCCCOC(=O)N1CCN(C(=O)[C@H](CCC(=O)O)NC(=O)c2cc(N3CCC(COC)CC3)cc(-c3ccccc3)n2)CC1 ?
No

What about CCCCCOC(=O)N1CCN(C(=O)[C@H](CCC(=O)O)NC(=O)c2cc(NC(=O)CN3CCN(C)CC3)cc(-c3ccccc3)n2)CC1 ?
No

What about CCCCCOC(=O)N1CCN(C(=O)[C@H](CCC(=O)O)NC(=O)c2cc(NC(=O)OCC3CCNCC3)cc(-c3ccccc3)n2)CC1 ?
No

What about CCCCCOC(=O)N1CCN(C(=O)[C@H](CCC(=O)O)NC(=O)c2cc(N3CCC(COCCC)CC3)cc(-c3ccccc3)n2)CC1 ?
No

What about COC(=O)N1CCN(C(=O)[C@H](CCC(=O)O)NC(=O)c2cccc(-c3ccccc3)n2)CC1 ?
No
